These data points were gathered from ChEMBL document CHEMBL1201862.

# target_or_test_system: Voltage-gated N-type calcium channel alpha-1B subunit/Amyloid beta A4 precursor protein-binding family A member 1 (Homo sapiens, UniProt Q00975+Q02410)
# Sequence (Q00975 whole entry): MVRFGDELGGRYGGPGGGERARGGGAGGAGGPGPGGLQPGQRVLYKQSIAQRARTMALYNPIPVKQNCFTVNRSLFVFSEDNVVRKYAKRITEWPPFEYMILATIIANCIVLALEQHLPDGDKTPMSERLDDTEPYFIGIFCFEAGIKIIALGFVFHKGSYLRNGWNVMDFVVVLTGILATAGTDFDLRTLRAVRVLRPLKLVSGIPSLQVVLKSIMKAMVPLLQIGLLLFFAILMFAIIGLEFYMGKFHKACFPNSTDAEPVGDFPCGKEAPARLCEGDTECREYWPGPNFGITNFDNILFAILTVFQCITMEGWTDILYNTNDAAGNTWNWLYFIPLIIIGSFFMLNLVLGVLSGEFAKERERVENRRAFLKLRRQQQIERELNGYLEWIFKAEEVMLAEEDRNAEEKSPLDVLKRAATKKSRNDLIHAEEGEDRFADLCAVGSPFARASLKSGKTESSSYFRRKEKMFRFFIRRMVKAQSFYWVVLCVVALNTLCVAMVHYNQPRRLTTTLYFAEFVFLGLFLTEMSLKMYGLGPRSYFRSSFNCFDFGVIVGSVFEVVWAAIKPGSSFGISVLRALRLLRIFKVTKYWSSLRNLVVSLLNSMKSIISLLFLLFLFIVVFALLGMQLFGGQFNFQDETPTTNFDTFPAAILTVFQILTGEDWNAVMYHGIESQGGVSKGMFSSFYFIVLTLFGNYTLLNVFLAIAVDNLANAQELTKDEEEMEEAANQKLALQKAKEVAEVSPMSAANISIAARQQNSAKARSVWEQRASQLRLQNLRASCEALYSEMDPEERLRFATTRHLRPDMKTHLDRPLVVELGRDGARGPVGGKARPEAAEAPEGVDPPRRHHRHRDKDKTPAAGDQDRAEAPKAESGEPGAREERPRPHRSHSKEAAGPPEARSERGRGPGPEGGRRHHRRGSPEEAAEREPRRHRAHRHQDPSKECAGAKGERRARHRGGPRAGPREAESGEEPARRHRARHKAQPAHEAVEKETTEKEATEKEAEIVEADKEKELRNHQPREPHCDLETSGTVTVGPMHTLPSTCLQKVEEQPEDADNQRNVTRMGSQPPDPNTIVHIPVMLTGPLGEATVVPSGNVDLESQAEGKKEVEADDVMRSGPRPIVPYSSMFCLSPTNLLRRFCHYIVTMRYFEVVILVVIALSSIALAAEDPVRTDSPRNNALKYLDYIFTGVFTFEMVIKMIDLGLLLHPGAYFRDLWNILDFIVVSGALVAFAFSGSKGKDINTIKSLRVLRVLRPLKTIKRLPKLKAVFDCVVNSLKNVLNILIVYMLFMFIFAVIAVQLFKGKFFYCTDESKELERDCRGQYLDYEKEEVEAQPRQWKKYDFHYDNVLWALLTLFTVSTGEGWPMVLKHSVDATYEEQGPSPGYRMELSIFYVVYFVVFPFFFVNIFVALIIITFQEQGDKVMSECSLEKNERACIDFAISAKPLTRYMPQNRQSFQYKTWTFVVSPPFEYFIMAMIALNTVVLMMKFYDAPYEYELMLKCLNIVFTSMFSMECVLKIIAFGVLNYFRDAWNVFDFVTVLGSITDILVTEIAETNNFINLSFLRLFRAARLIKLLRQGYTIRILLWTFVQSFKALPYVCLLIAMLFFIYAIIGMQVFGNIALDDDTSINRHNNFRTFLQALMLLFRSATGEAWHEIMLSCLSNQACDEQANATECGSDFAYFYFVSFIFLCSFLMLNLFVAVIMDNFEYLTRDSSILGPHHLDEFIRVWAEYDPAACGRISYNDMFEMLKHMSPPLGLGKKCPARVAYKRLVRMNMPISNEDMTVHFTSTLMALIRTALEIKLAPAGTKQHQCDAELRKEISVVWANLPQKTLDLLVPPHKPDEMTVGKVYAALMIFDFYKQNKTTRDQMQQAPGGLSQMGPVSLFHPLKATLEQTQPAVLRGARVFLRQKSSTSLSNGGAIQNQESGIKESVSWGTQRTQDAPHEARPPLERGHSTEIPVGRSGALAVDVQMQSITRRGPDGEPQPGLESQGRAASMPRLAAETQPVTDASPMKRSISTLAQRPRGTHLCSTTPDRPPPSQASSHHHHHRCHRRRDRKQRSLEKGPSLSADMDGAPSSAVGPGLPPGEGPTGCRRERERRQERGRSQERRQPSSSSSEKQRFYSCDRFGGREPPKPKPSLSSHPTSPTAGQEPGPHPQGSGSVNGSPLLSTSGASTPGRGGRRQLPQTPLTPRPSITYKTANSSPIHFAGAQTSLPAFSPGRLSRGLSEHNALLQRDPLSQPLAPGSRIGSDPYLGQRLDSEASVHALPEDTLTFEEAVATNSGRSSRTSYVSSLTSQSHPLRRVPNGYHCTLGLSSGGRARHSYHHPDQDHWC
# Sequence (Q02410 whole entry): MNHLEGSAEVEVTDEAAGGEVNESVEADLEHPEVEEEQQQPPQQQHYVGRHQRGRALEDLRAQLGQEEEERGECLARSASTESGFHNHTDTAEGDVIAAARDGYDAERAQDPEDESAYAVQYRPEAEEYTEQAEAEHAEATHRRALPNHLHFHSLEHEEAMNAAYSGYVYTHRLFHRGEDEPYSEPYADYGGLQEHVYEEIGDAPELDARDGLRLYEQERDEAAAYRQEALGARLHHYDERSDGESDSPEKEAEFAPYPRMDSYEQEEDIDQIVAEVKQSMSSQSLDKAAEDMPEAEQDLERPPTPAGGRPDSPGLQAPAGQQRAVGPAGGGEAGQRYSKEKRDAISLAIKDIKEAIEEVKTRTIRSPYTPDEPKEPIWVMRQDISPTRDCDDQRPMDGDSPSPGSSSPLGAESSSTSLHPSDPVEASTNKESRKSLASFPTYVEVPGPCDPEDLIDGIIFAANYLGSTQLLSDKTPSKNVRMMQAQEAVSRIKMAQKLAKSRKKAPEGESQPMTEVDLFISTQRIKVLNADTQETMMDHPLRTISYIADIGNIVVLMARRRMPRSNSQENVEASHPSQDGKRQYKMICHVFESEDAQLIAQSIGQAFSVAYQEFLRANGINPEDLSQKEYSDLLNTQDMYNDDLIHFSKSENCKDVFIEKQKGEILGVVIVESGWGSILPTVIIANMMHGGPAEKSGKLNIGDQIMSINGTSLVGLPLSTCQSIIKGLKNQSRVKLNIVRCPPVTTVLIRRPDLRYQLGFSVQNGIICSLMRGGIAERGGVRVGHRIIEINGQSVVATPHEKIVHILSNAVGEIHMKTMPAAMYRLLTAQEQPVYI
# Type: protein assay
The source made the active and inactive calls.
Outcome codes: True (active), False (inactive)

compound: Cc1cc(C)c2c(=O)n(CC(=O)Nc3cccc(F)c3)sc2n1
label_value: False
--
compound: CCOc1ccc(C(=O)Nc2ccc(-c3nc4ccccc4[nH]3)cc2)cc1[N+](=O)[O-]
label_value: False
--
compound: Cc1ccc2[nH]c(=O)c(C=C3C(=O)NC(=S)NC3=O)cc2c1
label_value: True
--
compound: CCN(CC)c1ccc(NC(=O)Cn2c(C(C)NC(=O)c3ccccc3)nc3ccccc32)cc1 (stereo not given)
label_value: False
--
compound: N#CC1=C(N)N=C(S)C(C(N)=O)C1c1ccc([N+](=O)[O-])cc1 (stereo not given)
label_value: False

----------
# target_or_test_system: UniProt:P0AE70
# Sequence (P0AE70 whole entry): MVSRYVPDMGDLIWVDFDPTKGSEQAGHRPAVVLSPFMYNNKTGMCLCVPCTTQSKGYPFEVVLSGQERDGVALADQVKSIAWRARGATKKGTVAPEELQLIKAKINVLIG
# assay_text: substrate-only fluorescence increase artefacts – biochemical, single-stranded RNase substrate, counter-screen for MazEF activator project, dose response (AID 588502)
# Type: functional
Calls of active or inactive are those of the source.
Here, each record is paired with measured EC50 data.
quantity_measured: EC50

molecule: O=C(Nc1cc[n+](-c2nc3ccccc3nc2[N-]S(=O)(=O)c2ccc(Cl)cc2)cc1)c1cccs1
quantity_measured: EC50
reading: > 99 µM (inactive)
//
molecule: O=C(Nc1ccc(Cl)c(C(F)(F)F)c1)NC1CC2CCCC(C1)N2Cc1ccccc1 (stereo unspecified)
quantity_measured: EC50
reading: > 99 µM (inactive)
//
molecule: NC(=O)CSc1nnc(-c2cc(-c3cccs3)nc3ccccc23)o1
quantity_measured: EC50
reading: > 99 µM (inactive)
//
molecule: CC(=O)C1=C(c2cccc([N+](=O)[O-])c2)N(C(C)=O)n2c(C)nnc2S1
quantity_measured: EC50
reading: 45.2 µM (inactive)
//
molecule: O=C(OCCNc1ccc(C(F)(F)F)cc1[N+](=O)[O-])c1cc2ccccc2oc1=O
quantity_measured: EC50
reading: 89.7 µM (inactive)
//
molecule: COc1ccc(OCCNc2cc(Cl)ccc2[N+](=O)[O-])cc1
quantity_measured: EC50
reading: > 99 µM (inactive)

----------
Here, each record is paired with measured AC50 data.
# target_or_test_system: DNA repair protein RAD52 homolog (Homo sapiens, UniProt P43351)
# Sequence (P43351 whole entry): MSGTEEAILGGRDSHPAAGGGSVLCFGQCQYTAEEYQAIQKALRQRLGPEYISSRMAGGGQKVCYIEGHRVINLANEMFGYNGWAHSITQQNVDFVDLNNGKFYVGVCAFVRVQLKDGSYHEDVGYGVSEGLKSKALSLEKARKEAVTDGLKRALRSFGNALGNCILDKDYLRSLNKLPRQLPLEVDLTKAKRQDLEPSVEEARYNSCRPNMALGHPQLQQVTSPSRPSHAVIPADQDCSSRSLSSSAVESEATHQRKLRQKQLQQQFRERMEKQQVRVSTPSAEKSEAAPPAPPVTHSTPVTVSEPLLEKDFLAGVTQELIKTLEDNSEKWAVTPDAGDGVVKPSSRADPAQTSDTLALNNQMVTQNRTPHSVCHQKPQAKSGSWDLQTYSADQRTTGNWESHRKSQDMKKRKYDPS
# Type: functional, biochemical
The source made the active and inactive calls.
quantity_measured: AC50

compound: CCN(CC)CCN1CCn2c3c(c4cc(C)ccc42)CCCC31 (stereo not drawn)
quantity_measured: AC50
reading: 17.6 µM (active)
--
compound: Cc1ccc2c(c1)c1c3n2CCN(CC(O)CNC(C)C)C3CCC1 (stereo not drawn)
quantity_measured: AC50
reading: 15.8 µM (active)
--
compound: CC(=O)Nc1cccc(-c2cc(N3CCN(CCO)CC3)n3nccc3n2)c1
quantity_measured: AC50
reading: 27.6 µM (active)
--
compound: COc1ccc2nc(NCCN=C(S)NCCCN3CCOCC3)c(C#N)cc2c1
quantity_measured: AC50
reading: 9.87 µM (active)
--
compound: CN(C)CC/C=C1/c2ccc(F)cc2Sc2ccc(Cl)cc21
quantity_measured: AC50
reading: 12.8 µM (active)
--
compound: COc1cccc2sc(N(CCCN(C)C)C(=O)C(c3ccccc3)c3ccccc3)nc12
quantity_measured: AC50
reading: 13.3 µM (active)
--
compound: CCOC(=O)c1cnc2ccc(OCC)cc2c1NCCCN1CCOCC1
quantity_measured: AC50
reading: 11.2 µM (active)
--
compound: CN(C)CCCNc1nc2cc(-c3cnn(C)c3)sc2c(=O)n1C
quantity_measured: AC50
reading: 10.2 µM (active)
